B1: KLHDC10 (parent)
chain: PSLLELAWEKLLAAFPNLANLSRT

# Variants of: B1
# test.protocol: protein stability index of a GFP-peptide fusion (GPS, HEK-293T) (PSI 1-6); higher = more stable;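 further: lentivirally expressed fusions sorted by FACS into six bins by GFP to DsRed ratio, PSI derived from sequencing read proportions per bin multiplied by bin number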
# assay.context: c terminus: a fixed tail appended
Record 1 whenever protein stability index is at 2 or higher; record -1 when lower.

[[record]]
polymer_sequence = "PSLLELAWEKLLAAFPNLANLWRT [S22W]"
cat = 1


Threshold query (protein stability index >= 2) on PSLLGLAWEKLLAAFPNLANLSRT [E5G]
1

For PSLLRLAWEKLLAAFPNLANLSRT [E5R] then?
1

Then what about the variant PSLLELAWWKLLAAFPNLANLSRT [E9W] ?
-1

Input PSLLEEAWEKLLAAFPNLANLSRT [L6E]
-1

Would you mind doing PSLRELAWEKLLAAFPNLANLSRT [L4R] as well?
1

Same for PSLLELAEEKLLAAFPNLANLSRT [W8E]
1

Follow-up item: PSLLELAWEKLLAAFPNLANESRT [L21E]
-1

And then PSLLELAWEKLLAAFENLANLSRT [P16E] , what is it?
-1
